Each entry below carries its reported kon.
# SYSTEM: SARS-COV-2 RBD extracellular domain expressed with a C-terminal myc-myc-hexahistidine tag (SARS-COV-2 RBD-mmH) (SARS-CoV-2)
# TEST NAME: SPR Biacore, mAb captured on anti-hFc, RBD-mmH analyte, 37 C
Number in M⁻¹ s⁻¹, nothing else.

mAb13458 (antibody, V domains shown) VH: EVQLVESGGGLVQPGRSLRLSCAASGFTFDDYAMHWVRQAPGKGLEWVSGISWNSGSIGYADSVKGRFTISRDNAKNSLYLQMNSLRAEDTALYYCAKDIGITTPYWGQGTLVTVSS VL: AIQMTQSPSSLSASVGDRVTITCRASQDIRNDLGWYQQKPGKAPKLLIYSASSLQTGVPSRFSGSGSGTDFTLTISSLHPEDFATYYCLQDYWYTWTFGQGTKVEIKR : 907000

Consider the additional binder presented here.
## Input Need kon of mAb15170 (antibody, V domains shown) VH: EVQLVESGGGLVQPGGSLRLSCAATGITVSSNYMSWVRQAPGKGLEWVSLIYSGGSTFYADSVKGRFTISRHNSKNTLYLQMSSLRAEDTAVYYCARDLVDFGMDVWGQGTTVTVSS VL: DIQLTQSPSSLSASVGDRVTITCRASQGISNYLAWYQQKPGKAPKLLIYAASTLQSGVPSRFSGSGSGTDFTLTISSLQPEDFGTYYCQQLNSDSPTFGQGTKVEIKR , thanks.
## Output 283000
